Experiment: soluble on expression in E. coli; label from the status in PepcDB or PDB records
Recorded metric: soluble on expression in E. coli

Recorded soluble on expression in E. coli, per entry:
TKNNQQTTPQTNHFNVADPVNKVPNWRKLGPETQRELRDLLYPLDDTGYFIYKYGAISRYLQSQKELDELVDYRTVLPSTQKHFKYDSFNQSVLESKLRKWLMKAIKQHPYFQHFEFDPVLKAQYNINIPAQKITVNAVWFYKKDNDLTTGKPIRYWDQFEIKLKQ : soluble
MSRAEFIRFLQVLEEDLPFRALFQEADPEEILKLADQHGFIFSDEIKGRFLNRWAGVYFCPFANDVGRLCPKMVPEGFSTLLHYSQTTCTKEDKVERFDFRAGGYYEGVKAVTG : not soluble
MTMGKRTQAPALEVRLLREGIIESKHIVQAVVCDERGRVLSVAGNSETATFVRSALKPFQALAVTTTGTLERYDLSDRDLAIITSSHKGTIEQVRQAFNILWRADLDPSVLQCPIPQGKRSPLEYNCSGKHAGMLAICQQRHWPLNNYMDRKHPVQQLVLAKVAELLRMPAAEFISAHDDCGVPTYLLQLGQISSLYALLAASNNLDMERIVRAMTHHPSMVAGEREFDTELMRLTPGELVSKSGAEGVQCIGRLGEGMGLTIKVMDGAKRAKYAVAIHLLQQMGWITPSVAESLAEKFMNPGKYTRLEVVGELSLLLEHHHHHH : not soluble
MAHHHHHHMHTNTMEVVVKHMGAAFSVAVIPVLKDNYTYIIHDKTTNTMAAVDVSADTTPIVDYVERIRRSIDERGAGAMSFSTIFSTHKHWDHAGGNVVLPKALKAAGAFRIIGGVNDNISGVTQTVREGDRLSLGALQVEVLEAPCHTRGHVLYKVYHPQAEKDGVALFTGDTMFVGGIGAFFEGDAAHMCRALRKVYNLHHNATDKEEADRRTFVFPGHEYTVNFLQFARDTIPPAHPDATFIASQLERYKESVAQRKPTVPSTLAEEKRQNLFLRTCDESFVREMKHGDTAETLMQHLYDTCP : not soluble
MGVRLAVRCFVVDGVLIDTGAKSMENEFTSFFQQQDIDQVVITHFHEDHTGCAAFLQRSMGLPIYMNEPMIEYCRQKADYPLYRKIFWGKRDPFAAKPIGATFSSRNATWDVIPTPGHAIDHVVFLNRETGQLFSGDLYCQEKTKVILREEDIPTIIASLQHVLTYDFGDVFCAHAGYLPLEHHHHHH : not soluble
SLNKIKAFYNLPMAYYRLSNFLKHYIDDNTIIICIGTDRCIGDCLGPMVGTMLKEKFFPLNVYGTISEPIHALNIDKKLYKIKKDHTNSTIIGIDACLGDTENIGEIQVRDYAIHPGKGVGKSLPDVGEVSIVGIVDSCESSELFTNRNIRLNLIFEMSKVIVQTIIHSYYLHKTFSDSIFPDSASTLK : soluble

query: Find the measured soluble on expression in E. coli of `GPGSMVEYKSAAAIAQALFTTHGKDSTTFNRLLRDRIGKRGDRFTEDHPDTFLYIERSKNANVVAYTARFVDAETKKPVPSGVGRDCIIKHDGPVHAYFITLDPQQMEKLRAKGRTSLIDDLNFVQRKMAYGCSGKSFDVASASRECDNPADFKRWMSAFDPYTLSYVALAKYPTLLLTLKPVKDSNGEENDTAVALIAVIGGELSVVKKIYVSSTEPKHFYELPTVNYIEVFGVSVDKGSDTYEKKAP` and report it.
result: not soluble

query: Find the measured soluble on expression in E. coli of `MGSDKIHHHHHHMGKVLFVSGIDTDIGKSVATGYYARYLMQLGYSVITQKMVQTGCCDISSDILIHRKIQGVELADEDRKGETCCYLFDYPCSPYLAACLQNTYIDEKTIEKYTALLAQKYDYVLLEGAGGLMVPYAEGKTTLDYITAHNYPLILVTSGRLGSINHTLLSLEVCAHQNINVDTLIYNLYPPTDKLITQDTQQYFKSYLAKRFPTTKFMLMQKIDF` and report it.
result: not soluble

query: Find the measured soluble on expression in E. coli of `MEEHPRAWIISVGNELLIGRTINTNAAWLGSRLTLLGFEVERVVTVPDRVEDIAEEVGRALGRARVVITTGGLGPTYDDVTLQGVAMALGRGLKLHPGALEMVRRFYSKRGLGLTEDRVKMAMLPDGAEPLENPVGAAPGAVVEARGSLVASLPGVPSEMEAMFEKALRPLLEEIAPPGAVVECGIAVVGVPESSLAPYIKEASRVSPRVYVKSHPQGSEIGKPLVRVRVLARASTLEEARAEALKALEKVRRGVEELGGSISEEDSC` and report it.
result: soluble

query: Find the measured soluble on expression in E. coli of `QVQLVASGGGSVQAGGSLRLSCAASGYTFSSYPMGWYRQAPGKECELSARIFSDGSANYADSVKGRFTISRDNAANTAYLQMDSLKPEDTAVYYCAAGPGSGKLVVAGRTCYGPNYWGQGTQVTVSS` and report it.
result: soluble

query: Find the measured soluble on expression in E. coli of `MASYKKERLENDIIRLINRTVIHEIYNETVKTGHVTHVKLSDDLLHVTVYLDCYNREQIDRVVGAFNQAKGVFSRVLAHNLYLAKAVQIHFVKDKAIDNAMRIESIINSLKKSKPN` and report it.
result: soluble

query: Find the measured soluble on expression in E. coli of `MAHHHHHHMNEPDAALEGVVDLTSNNFDSSVGKDVAALVEFYAPWCGHCKNLVPEFAKLGRAAAGAKDKVLIAKVDATAQKDLATRFEVNGYPTILFFPAGSQKPEKYSEGREAKAFVSYLNNQIKGLNLFLPREHKYVMALDQSNFDKVALDEGKDAFVLFYAPWCGHCKRLHPSFESLAKVYQNEKDLIIANVDADDKSNSEVTKRYKVEGYPTLVFFPKGNKGNPVNYEEGRTLDDMIKFVNERTGKKRTSSGDFDKTVGVDETVTNLMKEMAQSSKNKEERERLLAQIQQAVSPKALGEGAMHYIRIATNVLENGHEYISKEHERVGRLLKGSLTGPKRDSLTIRFNILSAIKGE` and report it.
result: soluble

query: Find the measured soluble on expression in E. coli of `MGSDKIHHHHHHMDVFSANQSAQGIVEEAQQANALDHPAAFEIPRSAVIDIKDSISGRTYPLFIKLPKSYRSQPNKRYPVIYLTDSWYSFQIVSGATRFPMNFNKMDEAIIVAISYSEGSRGSSSRNRDYTPSVNPAWKDITGGAAAHRDFIETTVFDYVERHYRAEAGSRIFVGNSFGGLFGTYVLMSKPEMFDSYILGSPSYWWDKGYIFELEKQFRKSAKPVSAKVFIGIGELEKKVNGVGEDMVKEAQAFYDLMQQWSSRPQTKLLIIPEADHQTAFPTTAIHGLQWILGKCPPKGNCLQGNLN` and report it.
result: not soluble
